The reported numbers originate from patent US9738653B2.

In this section, each of the molecules is paired with its reported pEC50.
System: genotype 1b (Con-1) HCV replicon in Huh-7 cells
Assay: HCV replicon luciferase assay
Type: cell-based
Settings: Hepatitis C virus, Huh-7, 72 h, 1b replicon, Renilla luciferase, 3 days incubation
pEC50: −log10 of the molar value.

chemical-smiles: CNC(=O)c1c(-c2ccc(F)cc2)oc2cc(CCC(F)(F)F)c(-c3ccc(F)c(C(=O)NC45CC(C4)C5)c3)c(F)c12
pEC50: 7.40
//
chemical-smiles: CNC(=O)c1c(-c2ccc(F)cc2)oc2nc(NCC(F)(F)F)c(-c3cc(C(=O)NC45CC(C4)C5)ccc3OC)cc12
pEC50: 8.04
//
chemical-smiles: CNC(=O)Cc1cc2oc(-c3ccc(F)cc3)c(C(=O)NC)c2cc1-c1ccc(F)c(C(=O)NC23CC(C2)C3)c1
pEC50: 7.30
//
chemical-smiles: CNC(=O)c1c(-c2ccc(F)cc2)oc2cc(OCC(F)(F)F)c(-c3ccc(OC)c(C(=O)NC45CC(C4)C5)c3)cc12
pEC50: 8.00

====

In this section, each of the compounds is paired with its reported EC50.
System: genotype 1b (Con-1) HCV replicon in Huh-7 cells
Experiment: HCV replicon luciferase assay
Format: cell-based
Conditions: Hepatitis C virus, Huh-7, 72 h, 1b replicon, Renilla luciferase, 3 days incubation

chemical-smiles: CNC(=O)c1c(-c2ccc(F)cc2)oc2nc(NCC(F)(F)F)c(-c3ccc(OC)c(C(=O)NC45CC(C4)C5)c3)cc12
EC50: 0.00372 µM

chemical-smiles: CNC(=O)c1c(-c2ccc(F)cc2)oc2cc(CC(=O)N(C)C)c(-c3ccc(F)c(C(=O)NC45CC(C4)C5)c3)cc12
EC50: 0.52 µM

chemical-smiles: CNC(=O)c1c(-c2ccc(F)cc2)oc2cc(CCCOC(=O)c3ccccc3)c(-c3cccc(C(=O)NC45CC(C4)C5)c3)cc12
EC50: 0.14 µM

chemical-smiles: CNC(=O)c1c(-c2ccc(F)cc2)oc2cc(CCNS(C)(=O)=O)c(-c3cccc(C(=O)NC45CC(C4)C5)c3)cc12
EC50: 0.02 µM

chemical-smiles: CCN(c1nc2oc(-c3ccc(F)cc3)c(C(=O)NC)c2cc1-c1cccc(C(=O)NC23CC(C2)C3)c1)S(C)(=O)=O
EC50: 0.00285 µM

chemical-smiles: CNC(=O)c1c(-c2ccc(F)cc2)oc2nc(CCC(F)(F)F)c(-c3cnc(OC)c(C(=O)NC45CC(C4)C5)c3)cc12
EC50: 0.00648 µM

====

Test system: genotype 1b (Con-1) HCV replicon in Huh-7 cells
Assay: HCV replicon luciferase assay
Type: cell-based
Conditions: Hepatitis C virus, Huh-7, 72 h, 1b replicon, Renilla luciferase, 3 days incubation

chemical-smiles: CNC(=O)c1c(-c2ccc(F)cc2)oc2cc(COC)c(-c3cccc(C(=O)NC45CC(C4)C5)c3)c(F)c12
EC50 / nM: 7.88

chemical-smiles: CNC(=O)c1c(-c2ccc(F)cc2)oc2nc(NCC(F)F)c(-c3cccc(C(=O)NC45CC(C4)C5)c3)cc12
EC50 / nM: 4.3

chemical-smiles: CNC(=O)c1c(-c2ccc(F)cc2)oc2nc(CCC(F)(F)F)c(-c3cc(F)cc(C(=O)NC45CC(C4)C5)c3)cc12
EC50 / nM: 10

chemical-smiles: CNC(=O)c1c(-c2ccc(F)cc2)oc2cc(CCC(F)(F)F)c(-c3cc(C(=O)NC45CC(C4)C5)c(OC)cc3C)cc12
EC50 / nM: 40

====

Biological target: HCV NS5B genotype 1b (Con1) (Hepatitis C virus genotype 1b, UniProt Q9WMX2)
Construct: Each untagged protein was expressed with an 18 amino acid C-terminal truncation to enhance the solubility; made in house; host or cells: E. coli BL21(DE3), pET21a
Sequence (Q9WMX2 2420-2992): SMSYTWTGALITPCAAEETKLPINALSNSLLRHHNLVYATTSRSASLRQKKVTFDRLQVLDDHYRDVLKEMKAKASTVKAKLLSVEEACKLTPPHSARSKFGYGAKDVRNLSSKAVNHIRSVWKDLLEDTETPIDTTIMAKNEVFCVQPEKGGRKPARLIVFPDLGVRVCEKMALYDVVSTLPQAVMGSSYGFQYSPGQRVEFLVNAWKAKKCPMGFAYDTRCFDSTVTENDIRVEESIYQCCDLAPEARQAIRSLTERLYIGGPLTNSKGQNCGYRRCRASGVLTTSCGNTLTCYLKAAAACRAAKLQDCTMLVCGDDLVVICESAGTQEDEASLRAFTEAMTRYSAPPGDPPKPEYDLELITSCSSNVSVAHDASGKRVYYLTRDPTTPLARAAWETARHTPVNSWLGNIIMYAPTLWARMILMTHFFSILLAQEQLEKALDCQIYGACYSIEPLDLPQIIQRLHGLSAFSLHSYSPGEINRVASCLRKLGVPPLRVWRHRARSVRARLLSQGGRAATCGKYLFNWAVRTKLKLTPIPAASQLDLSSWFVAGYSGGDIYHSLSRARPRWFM
Assay: HCV NS5B RdRp enzyme assay
Assay type: biochemical
Details: 1b enzyme, 24 hours at 30° C.
Experimental: The cDNA encoding NS5B proteins of HCV genotype 1b (Con1), a genotype 1b variant with amino acid 316 mutated from cysteine to asparagine, and genotype 2a (JFH-1), were cloned into the pET21a expression vector. […] Reactions were allowed to proceed for 24 hours at 30° C. and terminated by the addition of 50 mM EDTA (5 μL). After incubating for at least 15 minutes, plates were read on an Amersham LEADseeker multimodality imaging system. IC50 values for compounds were determined using ten different [I]. […]
pIC50: −log10 of the molar value.
Assign 1 whenever pIC50 does not fall below 8; assign -1 whenever it does.

chemical-smiles: CNC(=O)c1c(-c2ccc(F)cc2)oc2cc(CCNC(=O)OC)c(-c3cccc(C(=O)NC45CC(C4)C5)c3)cc12
qualitative-label: -1
//
chemical-smiles: CNC(=O)c1c(-c2ccc(F)cc2)oc2nc(CCC(F)(F)F)c(-c3cnc(OC)c(C(=O)NC45CC(C4)C5)c3)cc12
qualitative-label: 1
//
chemical-smiles: CNC(=O)c1c(-c2ccc(F)cc2)oc2cc(CC(N)=O)c(-c3cccc(C(=O)NC45CC(C4)C5)c3)cc12
qualitative-label: -1
//
chemical-smiles: CNC(=O)c1c(-c2ccc(F)cc2)oc2cc(CCC(F)(F)F)c(-c3cc(C(=O)NC45CC(C4)C5)c(F)cc3C)cc12
qualitative-label: -1
//
chemical-smiles: CNC(=O)c1c(-c2ccc(F)cc2)oc2cc(COC)c(-c3cc(C(=O)NC45CC(C4)C5)c(OC)cc3C)c(F)c12
qualitative-label: -1
//
chemical-smiles: CNC(=O)c1c(-c2ccc(F)cc2)oc2cc(CCCF)c(-c3cccc(C(=O)NC45CC(C4)C5)c3)cc12
qualitative-label: 1
//
chemical-smiles: CCCc1nc2oc(-c3ccc(F)cc3)c(C(=O)NC)c2cc1-c1ccc(F)c(C(=O)NC23CC(C2)C3)c1
qualitative-label: 1
//
chemical-smiles: CNC(=O)c1c(-c2ccc(F)cc2)oc2cc(OCC(F)(F)F)c(-c3ccc(OC)c(C(=O)NC45CC(C4)C5)c3)cc12
qualitative-label: 1
//
chemical-smiles: CCCc1cc2oc(-c3ccc(F)cc3)c(C(=O)NC)c2cc1-c1cc(C(=O)NC23CC(C2)C3)c(OC)cc1C
qualitative-label: -1
//
chemical-smiles: CNC(=O)c1c(-c2ccc(F)cc2)oc2cc(COC)c(-c3cccc(C(=O)NC45CC(C4)C5)c3)c(F)c12
qualitative-label: -1
//
chemical-smiles: CNC(=O)c1c(-c2ccc(F)cc2)oc2nc(NCC(F)(F)F)c(-c3ccc(OC)c(C(=O)NC45CC(C4)C5)c3)cc12
qualitative-label: -1
//
chemical-smiles: CCNc1cc2oc(-c3ccc(F)cc3)c(C(=O)NC)c2cc1-c1cc(C(=O)NC23CC(C2)C3)c(F)cc1F
qualitative-label: -1
//
chemical-smiles: CNC(=O)c1c(-c2ccc(F)cc2)oc2nc(CCC(F)(F)F)c(-c3cncc(C(=O)NC45CC(C4)C5)c3)cc12
qualitative-label: -1
//
chemical-smiles: CCCc1cc2oc(-c3ccc(F)cc3)c(C(=O)NC)c2cc1-c1cccc(C(=O)NC23CC(C2)C3)c1
qualitative-label: -1

====

Biological target: HCV NS5B genotype 1b (Con1) (Hepatitis C virus genotype 1b, UniProt Q9WMX2)
Construct: Each untagged protein was expressed with an 18 amino acid C-terminal truncation to enhance the solubility
Test: HCV NS5B RdRp enzyme assay
Details: 1b enzyme, 24 hours at 30° C.
pIC50: −log10 of the molar value.
Property: pIC50; scope: individual compounds

compound: CNC(=O)c1c(-c2ccc(F)cc2)oc2nc(NCC(F)F)c(-c3cccc(C(=O)NC45CC(C4)C5)c3)cc12
pIC50: 8.06
--
compound: CNC(=O)c1c(-c2ccc(F)cc2)oc2nc(CCC(F)(F)F)c(-c3cc(F)cc(C(=O)NC45CC(C4)C5)c3)cc12
pIC50: 7.52
--
compound: CCCc1cc2oc(-c3ccc(F)cc3)c(C(=O)NC)c2cc1-c1ccc(F)c(C(=O)NC23CC(C2)C3)c1
pIC50: 8.00
--
compound: CNC(=O)c1c(-c2ccc(F)cc2)oc2nc(OC)c(-c3ccc(F)c(C(=O)NC45CC(C4)C5)c3)cc12
pIC50: 7.05
--
compound: CNC(=O)c1c(-c2ccc(F)cc2)oc2cc(CCC(F)F)c(-c3cccc(C(=O)NC45CC(C4)C5)c3)cc12
pIC50: 8.14
--
compound: CNC(=O)c1c(-c2ccc(F)cc2)oc2cc(CCC(F)(F)F)c(-c3ccc(F)c(C(=O)NC45CC(C4)C5)c3)cc12
pIC50: 7.52
--
compound: CNC(=O)c1c(-c2ccc(F)cc2)oc2cc([N+](=O)[O-])c(-c3cccc(C(=O)NC45CC(C4)C5)c3)c(F)c12
pIC50: 6.17
--
compound: CNC(=O)c1c(-c2ccc(F)cc2)oc2ncc(-c3ccc(F)c(C(=O)NC45CC(C4)C5)c3)cc12
pIC50: 6.66
--
compound: CCN(c1nc2oc(-c3ccc(F)cc3)c(C(=O)NC)c2cc1-c1cccc(C(=O)NC23CC(C2)C3)c1)S(C)(=O)=O
pIC50: 8.17
--
compound: CNC(=O)c1c(-c2ccc(F)cc2)oc2nc(NCC(F)F)c(-c3ccc(OC)c(C(=O)NC45CC(C4)C5)c3)cc12
pIC50: 8.05
--
compound: CNC(=O)c1c(-c2ccc(F)cc2)oc2cc(CC(=O)OC)c(-c3cccc(C(=O)NC45CC(C4)C5)c3)cc12
pIC50: 8.10
--
compound: CNC(=O)c1c(-c2ccc(F)cc2)oc2cc(CCC(F)(F)F)c(-c3cc(C(=O)NC45CC(C4)C5)c(OC)cc3C)cc12
pIC50: 7.30
--
compound: CCCc1nc2oc(-c3ccc(F)cc3)c(C(=O)NC)c2cc1-c1cccc(C(=O)NC23CC(C2)C3)c1
pIC50: 8.11
--
compound: CCCc1cc2oc(-c3ccc(F)cc3)c(C(=O)NC)c2cc1-c1cc(C(=O)NC23CC(C2)C3)c(F)cc1C
pIC50: 7.70
--
compound: CCC(C)c1cc2oc(-c3ccc(F)cc3)c(C(=O)NC)c2cc1-c1cccc(C(=O)NC23CC(C2)C3)c1 (stereo not drawn) [drawing 304]
pIC50: 8.23
